Recorded values, source patent US20250034171A1.

# System: Mycobacterium tuberculosis strain H37Rv
# Assay name: Test 2: MIC determination against M. tuberculosis, resazurin fluorescence
# Assay type: cell-based
# Experimental context: Test 2, M. tuberculosis H37Rv
# Lookup of reported Bacterial activity pMIC50 keyed by entry
Measured attribute: Bacterial activity pMIC50

CCc1nc2n(c1C(=O)NCc1ccc(-c3nc4n(n3)CC[C@H](C(F)(F)F)C4)cc1)C[C@@H](C)CC2 (single isomer, unassigned) [Compound 69] | 7.95
CCc1nc2ccccn2c1C(=O)NCc1ccc(-c2nc3n(n2)CC[C@H](C(F)(F)F)C3)c(F)c1 (single isomer, unassigned) | 7.99
O=C(NCc1ccc(-c2nc3n(n2)CCC(C(F)(F)F)C3)cc1)c1c(C(F)F)nc2ccccn12 (racemic) [Compound 14ab] | 7.877
